Items are presented alongside their recorded apparent KD of MS2 coat protein.
tested on: MS2 coat protein; assay: apparent KD of MS2 coat protein; designed switch direction (-1 OFF switch, 1 ON switch): -1; higher = weaker reporter binding; details: Eterna round: R95; input ligand: FMN 200 uM

Please review the following examples before continuing.
| seqString | apparent KD of MS2 coat protein |
| --- | --- |
| GAUUAUGCGAGCUUUAGGGACAUGAGGAUCACCCAUGUUCGUCUUAUUGGUCUGGAUACACUGACAUACCUAAAUCU [JMF 60] (puzzle: Sensor v3, turn-off variant 1) | 16.8 nM |
| AGUACUAACACGAUAGUGUUAGUACAAUAAGCUUGUGUUACAUGAGGAUCACCCAUGUCCUCAUAAGCUCGUCUUAA [Mat - Sensor v3 - Turn-off var 2 - D59] (puzzle: Sensor v3, turn-off variant 2) | 44.3 nM |
| AGUACUAACACGAAAGUGUUAGUACAAUAAGCUUGUGAAACAUGAGGAUCACCCAUGUCCUCAUACGCUCGUCUUAU [salish99_TOv2_r3_055] (puzzle: Sensor v3, turn-off variant 2) | 500 nM |
| AAAGUCGGAGGAUAUACAAUAGAUGACAAUAAAGUUGGAGUACAUGAGGAUCACCCAUGUAGAAGGCCGAGAAA [Swimmer becomes a laser gun] (puzzle: Exclusion 2) | 28.2 nM |

Now look at this entry.
Prompt line: GET apparent KD of MS2 coat protein | system: MS2 coat protein | item: UUUUAGAGAGGAUAUAUGAUGUGAAACAUGAGGAUCACCCAUGUAAUAUUAUGGAUGUAAAUAGAAGGCUCAUUUA [JL-ex5-3.05] (puzzle: Exclusion 5)
Response line: 38.8 nM
